Target: GABA autoreceptor
Assay: antagonist activity at GABA autoreceptors by blockade of agonist (muscimol)-induced inhibition of potassium-evoked [3H]-GABA release from rat cortex slices in vitro (Procedure 1)
Conditions: inhibition of the effect of a single concentration of muscimol; read-out: IC50 value (GABA autoreceptor antagonism)
Mark yes (1) only for IC50 values smaller than 300 nM; exact matches and larger values are no (0).

Consider the following illustrative entries.
molecule="Oc1ccc(C2NCCc3cc(O)c(O)cc32)cc1 (centres unmarked)" assaysystem="GABA autoreceptor" labelclass="no (0)"
molecule="c1ccc2c(c1)CCN[C@H]2[C@@H]1CCCO1 (single isomer, unassigned) [(+) isomer of Compound C]" assaysystem="GABA autoreceptor" labelclass="no (0)"
molecule="CN1CCc2ccccc2[C@@H]1[C@@H]1CCCO1 (single isomer, unassigned) [(+) isomer of Compound D]" assaysystem="GABA autoreceptor" labelclass="yes (1)"
molecule="c1ccc2c(c1)CCN[C@H]2[C@@H]1CCCO1 (single isomer, unassigned) [(-) enantiomer of Compound C]" assaysystem="GABA autoreceptor" labelclass="yes (1)"

Here's the next entry for you.
Query block: Input CN1CCc2ccccc2[C@@H]1[C@@H]1CCCO1 (single isomer, unassigned) [(-) isomer of Compound D] ; condition: IC50 strictly below 300 nM. Does it hold?
Result block: yes (1)
